molecular target: V1a (Homo sapiens, UniProt P37288); assay: Human vasopression V1a receptor binding assay; set-up: host or cells: CHO cells (hV1a cell line), whole adherent cells; conditions: hV1a cell line (CHO), 1 nM 3H-AVP; Table 17; read-out: V1a Binding Affinity (IC50 (nM))
Sequence (P37288 whole entry): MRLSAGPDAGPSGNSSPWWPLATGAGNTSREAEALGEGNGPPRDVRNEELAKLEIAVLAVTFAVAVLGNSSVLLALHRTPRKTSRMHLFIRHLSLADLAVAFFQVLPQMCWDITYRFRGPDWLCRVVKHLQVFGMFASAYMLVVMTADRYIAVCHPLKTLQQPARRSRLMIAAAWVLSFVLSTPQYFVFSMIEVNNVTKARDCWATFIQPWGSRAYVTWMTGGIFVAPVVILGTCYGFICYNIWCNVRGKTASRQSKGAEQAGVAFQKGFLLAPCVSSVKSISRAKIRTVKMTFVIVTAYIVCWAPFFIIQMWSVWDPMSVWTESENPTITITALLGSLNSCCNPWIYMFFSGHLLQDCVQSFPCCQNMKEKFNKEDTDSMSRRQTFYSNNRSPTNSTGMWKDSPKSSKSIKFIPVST
Assay readout: IC50

The reported value for O=C(NCc1ccc(Cl)c(Cl)c1)[C@H](CCC(=O)N1CCN(C2CCCCC2)CC1)N1C(=O)[C@@H](N2C(=O)OC[C@@H]2c2ccccc2)[C@H]1/C=C/c1ccccc1 in terms of IC50 is < 100 nM

response.value for CN(Cc1ccccc1)C(=O)[C@H](CCC(=O)N1CCN(C2CCCCC2)CC1)N1C(=O)[C@@H](N2C(=O)OC[C@@H]2c2ccccc2)[C@H]1/C=C/c1ccccc1 (field: IC50) = < 100 nM

Just so you know, measured IC50 for O=C(NCc1ccc(F)c(C(F)(F)F)c1)[C@H](CCC(=O)N1CCN(C2CCCCC2)CC1)N1C(=O)[C@@H](N2C(=O)OC[C@@H]2c2ccccc2)[C@H]1/C=C/c1ccccc1 came out at < 50 nM

According to the records, this compound O=C(CC[C@@H](C(=O)N[C@@H]1CCCc2ccccc21)N1C(=O)[C@@H](N2C(=O)OC[C@@H]2c2ccccc2)[C@H]1/C=C/c1ccccc1)Nc1cnc2ccccc2c1 [Example 221AL] displays IC50 of ~100 nM
